Here, each record is paired with measured activity coefficient data.
# MEASUREMENT DESCRIPTION: activity coefficient (dimensionless); of the first substance listed, at infinite dilution; xn = mol fraction of the nth substance listed
# RUN CONDITIONS: 333.15 K; Liquid; Chromatography; x1 = 0
MEASURED PARAMETER: activity coefficient

COMPOUND	MEASURED PARAMETER	MEASURED VALUE
C#CCCCC [1-hexyne] + CCCOC[n+]1ccn(Cc2ccccc2)c1.O=S(=O)([N-]S(=O)(=O)C(F)(F)F)C(F)(F)F	activity coefficient	2.35
CCCCO [butan-1-ol] + CCCOC[n+]1ccc(N(C)C)cc1.O=S(=O)([N-]S(=O)(=O)C(F)(F)F)C(F)(F)F	activity coefficient	2.04
CCc1ccccc1 [ethylbenzene] + CCCCCCCCn1cc[n+](COCCCOC[n+]2ccn(CCCCCCCC)c2C)c1C.O=S(=O)([N-]S(=O)(=O)C(F)(F)F)C(F)(F)F.O=S(=O)([N-]S(=O)(=O)C(F)(F)F)C(F)(F)F	activity coefficient	0.73

---

# MEASUREMENT DESCRIPTION: activity coefficient (dimensionless); of the first substance listed, at infinite dilution; xn = mol fraction of the nth substance listed
# RUN CONDITIONS: 343.15 K; Liquid; Chromatography; x1 = 0
Here, each record is paired with measured activity coefficient data.

COMPOUND	activity coefficient
ClC(Cl)Cl [trichloromethane] + CN(C)c1cc[n+](COCCCOC[n+]2ccc(N(C)C)cc2)cc1.O=S(=O)([N-]S(=O)(=O)C(F)(F)F)C(F)(F)F.O=S(=O)([N-]S(=O)(=O)C(F)(F)F)C(F)(F)F	0.7
Cc1ccccc1C [1,2-dimethylbenzene] + CCCOC[n+]1ccn(Cc2ccccc2)c1.F[B-](F)(F)F	4.22
CCC(C)=O [butanone] + CCCOC[n+]1ccn(Cc2ccccc2)c1.O=S(=O)([N-]S(=O)(=O)C(F)(F)F)C(F)(F)F	0.22
CO [methanol] + N#C[N-]C#N.N#C[N-]C#N.c1ccc(Cn2cc[n+](COCCCOC[n+]3ccn(Cc4ccccc4)c3)c2)cc1	0.52
CCCCCCCCCCCCCC [tetradecane] + CCCOC[n+]1ccn(C)c1.N#C[N-]C#N	1260
CCCCCCC [heptane] + CCCOC[n+]1ccn(Cc2ccccc2)c1.N#C[N-]C#N	41.8
CCCCO [butan-1-ol] + CCCOC[n+]1ccn(Cc2ccccc2)c1.F[B-](F)(F)F	2.39

---

# MEASUREMENT DESCRIPTION: activity coefficient (dimensionless); of the first substance listed, at infinite dilution; xn = mol fraction of the nth substance listed
# RUN CONDITIONS: 343.15 K; Liquid; Chromatography; x1 = 0
Here, each record is paired with measured activity coefficient data.
MEASURED PARAMETER: activity coefficient

COMPOUND	MEASURED VALUE
CC1CCCCC1 [methylcyclohexane] + CCCOC[n+]1ccn(C)c1.N#C[N-]C#N	35.6
CCCCCCCCCC [decane] + CCCCCCCCn1cc[n+](COCCCOC[n+]2ccn(CCCCCCCC)c2C)c1C.N#C[N-]C#N.N#C[N-]C#N	17.8
C=CCCCC [hex-1-ene] + CCCCCCCCn1cc[n+](COCCC)c1C.O=S(=O)([N-]S(=O)(=O)C(F)(F)F)C(F)(F)F	2.47
CCC[N+](=O)[O-] [1-nitropropane] + CCCOC[n+]1ccn(C)c1.N#C[N-]C#N	1.39
CCO [ethanol] + CCCCCCCCn1cc[n+](COCCC)c1C.N#C[N-]C#N	0.38
CCC(C)=O [butanone] + CCCCCCCCn1cc[n+](COCCCOC[n+]2ccn(CCCCCCCC)c2C)c1C.N#C[N-]C#N.N#C[N-]C#N	0.46
CCCCCCCCCCCC [dodecane] + CCCOC[n+]1ccn(C)c1.N#C[N-]C#N	639
CC1CCCC1 [methylcyclopentane] + CCCCCCCCn1cc[n+](COCCCOC[n+]2ccn(CCCCCCCC)c2C)c1C.N#C[N-]C#N.N#C[N-]C#N	4.63
c1ccncc1 [pyridine] + CCCCCCCCn1cc[n+](COCCC)c1C.N#C[N-]C#N	0.54
C1COCCO1 [1,4-dioxane] + N#C[N-]C#N.N#C[N-]C#N.c1ccc(Cn2cc[n+](COCCCOC[n+]3ccn(Cc4ccccc4)c3)c2)cc1	1.35
CC(C)OC(C)C [diisopropyl ether] + CCCOC[n+]1ccn(Cc2ccccc2)c1.O=S(=O)([N-]S(=O)(=O)C(F)(F)F)C(F)(F)F	2.74
CCC(C)CC [3-methylpentane] + CCCOC[n+]1ccn(Cc2ccccc2)c1.O=S(=O)([N-]S(=O)(=O)C(F)(F)F)C(F)(F)F	5.91
c1ccccc1 [benzene] + CN(C)c1cc[n+](COCCCOC[n+]2ccc(N(C)C)cc2)cc1.O=S(=O)([N-]S(=O)(=O)C(F)(F)F)C(F)(F)F.O=S(=O)([N-]S(=O)(=O)C(F)(F)F)C(F)(F)F	0.68
C1COCCO1 [1,4-dioxane] + CCCOC[n+]1ccn(Cc2ccccc2)c1.F[B-](F)(F)F	0.96

---

# MEASUREMENT DESCRIPTION: activity coefficient (dimensionless); of the first substance listed, at infinite dilution; xn = mol fraction of the nth substance listed
# RUN CONDITIONS: 343.15 K; Liquid; Chromatography; x1 = 0
activity coefficient vs 10: at or above is y, below is n.

COMPOUND	LABEL
CC1CCCCC1 [methylcyclohexane] + CN(C)c1cc[n+](COCCCOC[n+]2ccc(N(C)C)cc2)cc1.O=S(=O)([N-]S(=O)(=O)C(F)(F)F)C(F)(F)F.O=S(=O)([N-]S(=O)(=O)C(F)(F)F)C(F)(F)F	y
CCCCCCC [heptane] + CCCCCCCCn1cc[n+](COCCCOC[n+]2ccn(CCCCCCCC)c2C)c1C.O=S(=O)([N-]S(=O)(=O)C(F)(F)F)C(F)(F)F.O=S(=O)([N-]S(=O)(=O)C(F)(F)F)C(F)(F)F	n
C[N+](=O)[O-] [nitromethane] + Cn1cc[n+](COCCCOC[n+]2ccn(C)c2)c1.O=S(=O)([N-]S(=O)(=O)C(F)(F)F)C(F)(F)F.O=S(=O)([N-]S(=O)(=O)C(F)(F)F)C(F)(F)F	n
CCCCCCCCCC [decane] + Cn1cc[n+](COCCCOC[n+]2ccn(C)c2)c1.O=S(=O)([N-]S(=O)(=O)C(F)(F)F)C(F)(F)F.O=S(=O)([N-]S(=O)(=O)C(F)(F)F)C(F)(F)F	y

---

Here, each record is paired with measured activity coefficient data.
# MEASUREMENT DESCRIPTION: activity coefficient (dimensionless); of the first substance listed, at infinite dilution; xn = mol fraction of the nth substance listed
# RUN CONDITIONS: 323.15 K; Liquid; Chromatography; x1 = 0

COMPOUND	activity coefficient
CCCCO [butan-1-ol] + N#C[N-]C#N.N#C[N-]C#N.c1ccc(Cn2cc[n+](COCCCOC[n+]3ccn(Cc4ccccc4)c3)c2)cc1	1.8
C1COCCO1 [1,4-dioxane] + CCCCCCCCn1cc[n+](COCCC)c1C.O=S(=O)([N-]S(=O)(=O)C(F)(F)F)C(F)(F)F	0.5
CCC(=O)CC [pentan-3-one] + CN(C)c1cc[n+](COCCCOC[n+]2ccc(N(C)C)cc2)cc1.O=S(=O)([N-]S(=O)(=O)C(F)(F)F)C(F)(F)F.O=S(=O)([N-]S(=O)(=O)C(F)(F)F)C(F)(F)F	0.67
c1ccsc1 [thiophene] + CCCOC[n+]1ccn(C)c1.N#C[N-]C#N	1.41
CCOCC [diethyl ether] + CN(C)c1cc[n+](COCCCOC[n+]2ccc(N(C)C)cc2)cc1.O=S(=O)([N-]S(=O)(=O)C(F)(F)F)C(F)(F)F.O=S(=O)([N-]S(=O)(=O)C(F)(F)F)C(F)(F)F	2.46
CC(C)OC(C)C [diisopropyl ether] + CCCOC[n+]1ccn(C)c1.F[B-](F)(F)F	32.7
CCO [ethanol] + N#C[N-]C#N.N#C[N-]C#N.c1ccc(Cn2cc[n+](COCCCOC[n+]3ccn(Cc4ccccc4)c3)c2)cc1	0.94
ClC(Cl)Cl [trichloromethane] + N#C[N-]C#N.N#C[N-]C#N.c1ccc(Cn2cc[n+](COCCCOC[n+]3ccn(Cc4ccccc4)c3)c2)cc1	1.22
CCCCCC [hexane] + CCCOC[n+]1ccn(Cc2ccccc2)c1.O=S(=O)([N-]S(=O)(=O)C(F)(F)F)C(F)(F)F	7.52
CCCCCCCCC [nonane] + CCCCCCCCn1cc[n+](COCCCOC[n+]2ccn(CCCCCCCC)c2C)c1C.N#C[N-]C#N.N#C[N-]C#N	17.1
C#CCCCC [1-hexyne] + CCCOC[n+]1ccn(Cc2ccccc2)c1.O=S(=O)([N-]S(=O)(=O)C(F)(F)F)C(F)(F)F	2.14
Cc1cccc(C)c1 [1,3-dimethylbenzene] + CN(C)c1cc[n+](COCCCOC[n+]2ccc(N(C)C)cc2)cc1.O=S(=O)([N-]S(=O)(=O)C(F)(F)F)C(F)(F)F.O=S(=O)([N-]S(=O)(=O)C(F)(F)F)C(F)(F)F	1.36
